Recorded values, source patent US4698352A.

Tested on: Kl. pneumoniae Y-4*
Assay: Antibacterial activity (MIC), agar dilution
Assay type: cell-based
Conditions: Klebsiella pneumoniae, 20 h, Kl. pneumoniae Y-4, penicillinase-producing; 10^6 cells per ml; read-out: MIC
READOUT TYPE: MIC
Kindly write the number and append the unit.

| COMPOUND | MIC |
| --- | --- |
| Cc1nc(-c2ccc(-c3cc(=O)c(C(=O)O)cn3-c3ccc(O)cc3C)cc2)co1 | 3.13 µg/mL |
| O=C(O)c1cn(-c2ccc(O)cc2)c(-c2ccc3sccc3c2)cc1=O | 0.78 µg/mL |
| CC(=O)Oc1ccc(-n2cc(C(=O)O)c(=O)cc2-c2cc3ccccc3o2)cc1 | 12.5 µg/mL |

Provide MIC values for the following items, in order.
1. Cc1cc(O)ccc1-n1cc(C(=O)O)c(=O)cc1C1CC2C=CC1C2 (centres unmarked)
2. Cc1ccc(-c2cc(=O)c(C(=O)O)cn2-c2ccc(O)cc2)s1

Result ::
25 µg/mL
1.56 µg/mL
